- Tested on: HS 578T breast
- test: NCI tumour cell line growth inhibition, 48 h
Let's look at some compounds and their measured log10(TGI).
metric_name: log10(TGI) (log10 of the value in µM)

1) C=C1[C@@H](O)C[C@@]23CC[C@@H]4[C@@]5(C)CC[C@@H](OC(C)=O)C(C)(C)[C@@H]5C[C@@H](OC5OC(COC(C)=O)C(O)C(O)C5O)[C@@]4(C)C2=CC[C@H]3[C@H]1C (stereo partly drawn) = 1.35
2) COc1ccc2nc3cc([N+](=O)[O-])ccc3c(NCCCCCN(C)C)c2c1 = 0.67
3) COC(=O)/C=C/C=C(c1ccccc1)c1ccccc1 = 1.66
4) C[C@H](Nc1ncnc2nc[nH]c12)c1cc2cccc(Cl)c2c(=O)n1-c1ccccc1 = 1.16
5) O=c1cc(/C=C/c2ccc(O)c(O)c2)oc(/C=C/c2ccc(O)c(O)c2)c1 = 1.82
6) COC1(C(=O)N[C@@H](C)c2ccc(-n3cc(F)cn3)nc2)CCC(c2nc(C)cc(Nc3cc(C)[nH]n3)n2)CC1 (stereo partly drawn) = 0.12
7) O=C1/C(=C/c2ccccc2S)N=C(c2ccccc2)N1c1nc2ccc(Sc3ccccc3)cc2[nH]1 = 1.86
8) Nc1nn2c(C(Br)Br)cc(C(Br)Br)nc2c1[N+](=O)[O-] = 0.80
9) COC(=O)[C@]12CC[C@@H](C)[C@H](C)[C@@H]1C1=CC[C@@H]3[C@@]4(C)C[C@@H](OC(C)=O)[C@H](O)[C@@](C)(COC(C)=O)[C@@H]4[C@H](O)C[C@@]3(C)[C@]1(C)CC2 = 1.10
10) Nc1cc2cccc[n+]2c2cc(Cl)ccc12 = 1.71
11) CN(C)/C=C/c1nnc([N+](=O)[O-])s1 = 1.63
12) C[n+]1c(-c2ccccc2)cc2/c(=C\c3ccc([N+](=O)[O-])cc3)c3ccccc3n21 = 0.61

---

Let's look at some compounds and their measured TGI.
- System: OVCAR-8 ovarian
- test: NCI tumour cell line growth inhibition, 48 h
metric_name: TGI

1) CN(C)c1nc(=NCc2ccncc2)ss1 = 34.6 µM
2) CC(C)=C[C@@H]1C[C@H](n2cc(C)c(=O)[nH]c2=O)ON1CCO = > 100 µM
3) c1ccc2c(c1)[nH]c1nc3cc(-c4ccc5nc6c(nc5c4)[nH]c4ccccc46)ccc3nc12 = > 100 µM
4) COc1cc(/C=C/C(=O)O)ccc1C(=O)O/C=C/c1ccccc1 = > 100 µM
5) COc1ccc(N2C(C)=C(C#N)C34C(=O)N(c5ccccc5)C(=O)C3=C(O)C=CC24O)cc1 (stereo unspecified) = > 100 µM
6) C[n+]1c(-c2ccccc2)cc2/c(=C\c3ccc([N+](=O)[O-])cc3)c3ccccc3n21 = > 26 µM
7) COC(=O)c1csnn1 = > 100 µM
8) COc1cc(C2c3cc4c(cc3OC(NN=C(C)C)C2C)OCO4)cc(OC)c1O (stereo unspecified) = > 100 µM
9) CCN(CC)CCNc1ccc2nnn3c4ccc(OC)cc4c(=O)c1c23 = 19.9 µM
10) CC/C=C\C=C/C(=O)N/C=C/CC1Cc2cccc(O)c2C(=O)O1 (stereo unspecified) = > 100 µM
11) Cc1ccc2c(ccc3c[n+]4c5ccccc5ccc4n32)c1 = 9.72 µM
